- Assay Name: Phase I clinical pharmacokinetics (plasma, LC-MS/MS)
- Type: in vivo, human
- Condition Label: human, plasma, oral; individual patient, 32 mg QD, 21/28 day schedule; read-out: AUC0-24 h
Quantity: AUC(0-t)

Item: Cc1c(CN2CCN(C(=O)[C@H](C)O)CC2)sc2c(N3CCOCC3)nc(-c3cnc(N)nc3)nc12 | AUC(0-t): ~4.4 µM·h

---

- Assay Name: Phase I clinical pharmacokinetics (plasma, LC-MS/MS)
- Type: in vivo, human
- Condition Label: human, plasma; patients, single oral dose
Quantity: half-life

Item: Cc1c(CN2CCN(C(=O)[C@H](C)O)CC2)sc2c(N3CCOCC3)nc(-c3cnc(N)nc3)nc12 | half-life: 6 to 18 h

---

- Assay Name: clearance in rodents
- Condition Label: in vivo
Quantity: clearance (mL/min/kg)
Field format: number, assumed mL/min/kg, no unit text.

Item: Cc1c(CN2CCN(C(=O)[C@H](C)O)CC2)sc2c(N3CCOCC3)nc(-c3cnc(N)nc3)nc12 [GDC-0980] | clearance: 60

---

- Assay Name: Phase I clinical pharmacokinetics (plasma, LC-MS/MS)
- Format: in vivo, human
- Condition Label: human, plasma, oral; individual patient, 40 mg QD, 28/28 day schedule; read-out: AUC0-24 h
Quantity: AUC(0-t)

Item: Cc1c(CN2CCN(C(=O)[C@H](C)O)CC2)sc2c(N3CCOCC3)nc(-c3cnc(N)nc3)nc12 [GDC-0980] | AUC(0-t): ~4.1 µM·h

---

- Assay Name: pharmacokinetics after a single oral dose (species not given)
- Format: in vivo
- Condition Label: in vivo, species not stated, read-out: terminal half-life
Quantity: half-life

Item: Cc1c(CN2CCN(C(=O)[C@H](C)O)CC2)sc2c(N3CCOCC3)nc(-c3cnc(N)nc3)nc12 | half-life: 6 to 18 h

---

- Target System: UniProt Q12809
- Sequence (Q12809 whole entry): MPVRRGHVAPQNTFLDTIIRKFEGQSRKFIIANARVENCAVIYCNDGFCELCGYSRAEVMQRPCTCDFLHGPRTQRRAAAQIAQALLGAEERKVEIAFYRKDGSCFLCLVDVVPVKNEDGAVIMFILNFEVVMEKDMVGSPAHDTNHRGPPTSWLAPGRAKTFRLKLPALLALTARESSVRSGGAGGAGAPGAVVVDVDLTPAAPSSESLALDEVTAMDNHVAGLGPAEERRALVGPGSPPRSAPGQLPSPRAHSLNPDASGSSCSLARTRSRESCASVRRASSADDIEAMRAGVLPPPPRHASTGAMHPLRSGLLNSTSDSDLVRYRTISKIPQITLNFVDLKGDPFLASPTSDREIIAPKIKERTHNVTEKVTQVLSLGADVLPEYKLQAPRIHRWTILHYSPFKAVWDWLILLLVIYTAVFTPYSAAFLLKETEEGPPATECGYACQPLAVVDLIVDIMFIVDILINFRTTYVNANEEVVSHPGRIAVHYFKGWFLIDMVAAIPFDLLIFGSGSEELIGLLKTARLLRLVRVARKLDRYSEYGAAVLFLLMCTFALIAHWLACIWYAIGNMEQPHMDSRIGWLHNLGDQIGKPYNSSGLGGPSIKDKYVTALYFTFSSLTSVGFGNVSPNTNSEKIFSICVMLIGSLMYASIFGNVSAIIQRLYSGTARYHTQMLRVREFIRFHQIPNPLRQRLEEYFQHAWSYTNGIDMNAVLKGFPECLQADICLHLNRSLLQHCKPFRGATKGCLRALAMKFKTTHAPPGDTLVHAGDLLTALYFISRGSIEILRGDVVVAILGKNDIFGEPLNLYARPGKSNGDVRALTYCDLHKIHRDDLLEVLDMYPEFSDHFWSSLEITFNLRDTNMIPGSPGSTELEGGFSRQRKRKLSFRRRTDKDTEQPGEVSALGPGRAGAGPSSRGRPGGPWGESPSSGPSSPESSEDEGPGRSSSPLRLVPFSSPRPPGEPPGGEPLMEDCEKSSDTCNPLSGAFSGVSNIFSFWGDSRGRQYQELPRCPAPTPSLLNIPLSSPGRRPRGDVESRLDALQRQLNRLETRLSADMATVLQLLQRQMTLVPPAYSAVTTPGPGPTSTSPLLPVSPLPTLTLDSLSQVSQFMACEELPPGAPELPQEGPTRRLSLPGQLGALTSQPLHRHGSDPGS
- Assay Name: hERG activity
Quantity: IC50

Item: Cc1c(CN2CCN(C(=O)[C@H](C)O)CC2)sc2c(N3CCOCC3)nc(-c3cnc(N)nc3)nc12 | IC50: > 100 µM
